# Target of assay: human Gal-1 (hGal-1)
# Sequence (P09382 2-135 limits assumed): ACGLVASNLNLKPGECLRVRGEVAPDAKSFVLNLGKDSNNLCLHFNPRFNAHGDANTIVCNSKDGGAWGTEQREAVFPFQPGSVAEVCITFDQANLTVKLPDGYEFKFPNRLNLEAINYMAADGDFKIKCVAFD
# Protocol text: Competitive binding assay: biotinylated hGal-1 binding to microplate-adsorbed asialofetuin (ASF)
# Test parameters: Activity on hGal-1; binding of biotinylated hGal-1 to ASF-coated plates; mean values
# Description: Evaluation of Compound Inhibitory Activity (IC50) The inhibitory activity of compounds is determined in competitive binding assays. This spectrophotometric assay measures the binding of biotinylated human Gal-3 (hGal-3) or human Gal-1 (hGAl-1), respectively, to a microplate-adsorbed glycoprotein, asialofetuin (ASF) (Proc Natl Acad Sci USA. 2013 Mar. 26; 110(13):5052-7.). […] The calculated IC50 values may fluctuate depending on the daily assay performance. […]
A collection of compounds and their measured IC50
Numeric only. Scale: nM

Compound: CO[C@@H]1[C@@H](n2cc(-c3ccc(F)c4ccccc34)nn2)[C@@H](O)[C@@H](CO)O[C@H]1C(=O)N(c1cc(Cl)cc(Cl)c1)[C@H]1CCCC[C@@H]1O [Example 192]
Test result: 1140

Prompt line: Notebook entry, human Gal-1 (hGal-1) assay: IC50 of CO[C@@H]1[C@@H](n2cc(-c3cc(F)cc(Br)c3)nn2)[C@@H](O)[C@@H](CO)O[C@H]1C(=O)N(c1cc(Cl)cc(C#N)c1)[C@H]1CCCC[C@@H]1O [Example 145] = ?
Response line: 218

Recorded values, source patent US12291519B2.
